experiment: Pharmacokinetic study in male SD rats; type: in vivo; conditions: rat, po, gavage 10 mg/kg, fasted overnight, plasma
quantity.name: half-life
Kindly format the answer as number then unit.

**Query** So what does the record say about half-life for Cn1c(C#Cc2nccc(Nc3ccc(-c4cn[nH]c4)cc3)n2)ccc1C(=O)N1CC(F)(F)C1 ?
**Result** 3.47 h

----------
target: ROCK1 (Homo sapiens); construct: purchased Invitrogen PV3691; assay: Kinase IC50 assay, HTRF kinEASE STK S2 kit, ROCK1; assay type: biochemical; conditions: ATP 1.5 μM, 2.5 ng/well enzyme, 120 min
Sequence (Q13464 1-535 limits assumed): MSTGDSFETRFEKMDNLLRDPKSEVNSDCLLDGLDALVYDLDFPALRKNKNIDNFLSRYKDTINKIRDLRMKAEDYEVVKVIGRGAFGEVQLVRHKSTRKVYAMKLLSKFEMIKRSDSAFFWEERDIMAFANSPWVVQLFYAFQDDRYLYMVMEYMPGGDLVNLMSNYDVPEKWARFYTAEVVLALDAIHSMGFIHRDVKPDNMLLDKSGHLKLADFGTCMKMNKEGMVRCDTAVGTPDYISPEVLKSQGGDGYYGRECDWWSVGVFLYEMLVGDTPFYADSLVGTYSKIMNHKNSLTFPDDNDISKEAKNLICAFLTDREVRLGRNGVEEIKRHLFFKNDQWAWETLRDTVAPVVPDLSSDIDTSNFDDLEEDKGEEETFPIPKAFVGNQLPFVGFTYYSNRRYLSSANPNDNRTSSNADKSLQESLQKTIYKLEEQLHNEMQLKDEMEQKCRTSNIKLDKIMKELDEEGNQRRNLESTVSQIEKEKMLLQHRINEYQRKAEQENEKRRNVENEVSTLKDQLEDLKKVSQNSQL
quantity.name: IC50 (µM)
// note: answer is a bare numeric in µM

**Query** I'd like to know its IC50. The compound in question is Cc1[nH]ncc1-c1ccc(Nc2nc(C#Cc3ccc(C(=O)N4CC(F)(F)C4)n3C)ncc2F)cc1 [Compound A16]
**Result** 29.6

**Query** How about Cc1cc(C(=O)N2CC(F)(F)C2)n(C)c1C#Cc1ncc(F)c(Nc2ccc(-c3cn[nH]c3)c(F)c2)n1 [Compound A42] ?
**Result** 4.93

**Query** Input O=C(c1cccc(C#Cc2nccc(Nc3ccc(-c4cn[nH]c4)cc3)n2)c1)N1CC(F)(F)C1 [Compound A29]
**Result** 57.1

----------
Assay: Pharmacokinetic study in male SD rats
Format: in vivo
Conditions: rat, po, gavage 10 mg/kg, fasted overnight, plasma
Method: 1) Purpose of the Study: Obtain the Pharmacokinetic Characterization of the Compounds of the Present Invention in Male SD Rats […] Experimental results: The pharmacokinetic parameters after administration were calculated from the blood concentration data obtained by LC-MS/MS assay using the non-compartmental model of WinNonlin® 7.0 software (Pharsight, Inc., USA) and are shown in the table below: […]
quantity.name: Tmax (h)
Reply numerically in h, unit not repeated.

**Query** Report Tmax for Cn1c(C#Cc2nccc(Nc3ccc(-c4cn[nH]c4)cc3)n2)ccc1C(=O)N1CC(F)(F)C1 [Compound A1] please.
**Result** 1.33

----------
target: ROCK2 (Homo sapiens); construct: purchased Invitrogen PV3759; test: Kinase IC50 assay, HTRF kinEASE STK S2 kit, ROCK2; type: biochemical; conditions: ATP 1 μM, 2.5 ng/well enzyme, 120 min
Sequence (O75116 5-554 limits assumed): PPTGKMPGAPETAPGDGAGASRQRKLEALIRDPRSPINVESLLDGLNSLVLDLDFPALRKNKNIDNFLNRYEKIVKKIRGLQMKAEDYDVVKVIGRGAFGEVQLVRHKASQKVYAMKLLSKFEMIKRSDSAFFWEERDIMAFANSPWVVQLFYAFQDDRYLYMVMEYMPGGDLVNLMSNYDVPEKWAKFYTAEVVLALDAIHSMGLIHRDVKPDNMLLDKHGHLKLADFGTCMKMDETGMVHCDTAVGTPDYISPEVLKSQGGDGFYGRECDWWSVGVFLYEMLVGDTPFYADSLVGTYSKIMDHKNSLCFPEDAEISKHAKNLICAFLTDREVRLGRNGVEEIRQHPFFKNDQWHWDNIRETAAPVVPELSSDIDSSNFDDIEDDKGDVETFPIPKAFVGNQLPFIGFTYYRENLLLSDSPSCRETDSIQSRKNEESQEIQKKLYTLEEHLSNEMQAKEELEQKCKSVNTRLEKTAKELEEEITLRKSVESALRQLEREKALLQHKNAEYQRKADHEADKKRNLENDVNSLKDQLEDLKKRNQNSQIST
# strict inequality: IC50 < 0.2 µM yields Satisfied, everything else yields Not satisfied

**Query** Threshold test, IC50 < 0.2 µM: Cc1cc(C(=O)N2CC(F)(F)C2)n(C)c1C#Cc1ncc(F)c(Nc2cc(F)c(-c3cn[nH]c3)c(F)c2)n1
**Result** Satisfied

**Query** Then this compound: COC1CN(C(=O)c2cc(C)c(C#Cc3ncc(F)c(Nc4cc(F)c(-c5cn[nH]c5)cc4F)n3)n2C)C1
**Result** Satisfied

**Query** Likewise for Cn1c(C#Cc2ncnc(Nc3ccc(-c4cn[nH]c4)cc3)n2)ccc1C(=O)N1CC(F)(F)C1 ?
**Result** Not satisfied

**Query** Moving on to the next compound: Cn1c(C#Cc2ncc(F)c(Nc3ccc(-c4cn[nH]c4)cc3)n2)ccc1C(=O)N1CC(F)(F)C1
**Result** Satisfied

**Query** Now try Cn1c(C#Cc2nccc(Nc3ccc(-c4cn[nH]c4)cc3)n2)ccc1C(=O)N1CC(F)(F)C1 .
**Result** Satisfied

Others:
**Query** Given the entry Cn1c(C#Cc2ncc(F)c(Nc3ccc4c(=O)[nH]ccc4c3)n2)ccc1C(=O)N1CC(F)(F)C1 , would its reported IC50 be below 0.2 µM?
**Result** Not satisfied

**Query** Also, O=C(c1ccc(C#Cc2nccc(Nc3ccc(-c4cn[nH]c4)cc3)n2)nc1)N1CC(F)(F)C1 please.
**Result** Not satisfied

**Query** What about CCn1c(C#Cc2nccc(Nc3ccc(-c4cn[nH]c4)cc3)n2)ccc1C(=O)N1CC(F)(F)C1 ?
**Result** Not satisfied
